For each record, write down the corresponding self-cleavage kobs at 40 uM GlcN6P.
B1: glmS ribozyme (parent)
chain: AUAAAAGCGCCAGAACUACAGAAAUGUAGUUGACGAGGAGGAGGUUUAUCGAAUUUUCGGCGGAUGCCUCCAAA

# Variants of: B1
# test: self-cleavage kobs at 40 uM GlcN6P; higher = faster cleavage; RNA array
# runParameters: with glucosamine-6-phosphate
Variants at the floor of the assay were thinned out.

self-cleavage kobs at 40 uM GlcN6P reported for this variant C11G U54C : < 1e-05 s⁻¹

So, A14G C16U ? Its self-cleavage kobs at 40 uM GlcN6P was 0.00189 s⁻¹

The variant identified as A15U A36U G60A registered its self-cleavage kobs at 40 uM GlcN6P at < 1e-05 s⁻¹

self-cleavage kobs at 40 uM GlcN6P reading for G29U G51C : < 1e-05 s⁻¹

Quick note, self-cleavage kobs at 40 uM GlcN6P for C16U C34A A39U A52U C70A landed at < 1e-05 s⁻¹

// recorded self-cleavage kobs at 40 uM GlcN6P for A53C C70A : < 1e-05 s⁻¹

Reported self-cleavage kobs at 40 uM GlcN6P of C11A A48G : < 1e-05 s⁻¹

Input C50A G62U . Output self-cleavage kobs at 40 uM GlcN6P: < 1e-05 s⁻¹

Query C8A A48C yields self-cleavage kobs at 40 uM GlcN6P of < 1e-05 s⁻¹

Summary for this variant, G9C C11G G40A : self-cleavage kobs at 40 uM GlcN6P is < 1e-05 s⁻¹

C8A G37U C70A has a reported self-cleavage kobs at 40 uM GlcN6P of 7.9e-05 s⁻¹

Reported self-cleavage kobs at 40 uM GlcN6P of A15C A48U : < 1e-05 s⁻¹

For record C16A C34G the listed self-cleavage kobs at 40 uM GlcN6P is < 1e-05 s⁻¹

self-cleavage kobs at 40 uM GlcN6P for A42G U55G is 0.00175 s⁻¹

What the record says about A6C G44U G51A : self-cleavage kobs at 40 uM GlcN6P is < 1e-05 s⁻¹

self-cleavage kobs at 40 uM GlcN6P measured on A12U G32U C50G = 7.78e-05 s⁻¹

The recorded self-cleavage kobs at 40 uM GlcN6P for entry G51A C61A equals < 1e-05 s⁻¹

The value of self-cleavage kobs at 40 uM GlcN6P measured for the variant A42G U55G G59C turned out to be < 1e-05 s⁻¹

Reported self-cleavage kobs at 40 uM GlcN6P for G35C G62A was < 1e-05 s⁻¹

Lab note: measured self-cleavage kobs at 40 uM GlcN6P of G41A U49C was < 1e-05 s⁻¹

Data point: A14U U57G ; self-cleavage kobs at 40 uM GlcN6P = < 1e-05 s⁻¹

The recorded self-cleavage kobs at 40 uM GlcN6P for A15C U30A G41C U45A C58U is < 1e-05 s⁻¹

Lab book: self-cleavage kobs at 40 uM GlcN6P of C11G A33C noted as < 1e-05 s⁻¹

self-cleavage kobs at 40 uM GlcN6P reading for A15C G51A : < 1e-05 s⁻¹

Memo: A15C U56A , reported self-cleavage kobs at 40 uM GlcN6P: 0.000113 s⁻¹

Please fill in: self-cleavage kobs at 40 uM GlcN6P reported for G9A G62C = < 1e-05 s⁻¹

Form: variant = G41A ; self-cleavage kobs at 40 uM GlcN6P = 0.000349 s⁻¹

For A12C C70U the variant record lists self-cleavage kobs at 40 uM GlcN6P as 0.000475 s⁻¹

The recorded self-cleavage kobs at 40 uM GlcN6P for entry A15C U54G equals 0.000104 s⁻¹

self-cleavage kobs at 40 uM GlcN6P in this record for A6C C11G G29U C34G G51C : < 1e-05 s⁻¹

Recorded result, A12U U54C , self-cleavage kobs at 40 uM GlcN6P: 0.00204 s⁻¹

self-cleavage kobs at 40 uM GlcN6P recorded for this variant, G7U G37A C58U U69G , is 7.21e-05 s⁻¹

Entry A36U G43U C50U , self-cleavage kobs at 40 uM GlcN6P reported as < 1e-05 s⁻¹

# self-cleavage kobs at 40 uM GlcN6P of U46C A64U = < 1e-05 s⁻¹

Short answer for A53U U56G : self-cleavage kobs at 40 uM GlcN6P was 0.000405 s⁻¹

Briefly, self-cleavage kobs at 40 uM GlcN6P measured for A6C C8U C68A C70A : < 1e-05 s⁻¹

Kindly note the recorded self-cleavage kobs at 40 uM GlcN6P for C11U C58G C67U U69G , which is 3.48e-05 s⁻¹

get_value(item= C8A G38U C50G , readout=self-cleavage kobs at 40 uM GlcN6P) returns 4.1e-05 s⁻¹

Quick note, self-cleavage kobs at 40 uM GlcN6P for C11A A12C G44C U49A landed at < 1e-05 s⁻¹

Note to self: self-cleavage kobs at 40 uM GlcN6P recorded for G7A U30A U45C was < 1e-05 s⁻¹

Note to self: self-cleavage kobs at 40 uM GlcN6P recorded for A15U A39U U46A was < 1e-05 s⁻¹

Reported self-cleavage kobs at 40 uM GlcN6P of G29U U46G C58G C67A : 4.15e-05 s⁻¹

Field self-cleavage kobs at 40 uM GlcN6P (entry G29A U49C U69A ) reads < 1e-05 s⁻¹

Query G40U A48G G63U yields self-cleavage kobs at 40 uM GlcN6P of < 1e-05 s⁻¹

self-cleavage kobs at 40 uM GlcN6P recorded for this variant, A14C G43U , is < 1e-05 s⁻¹

Kindly note the recorded self-cleavage kobs at 40 uM GlcN6P for A15C A52C C70U C71G , which is < 1e-05 s⁻¹
